Source of measurements: BindingDB's records for doi:10.1016/S0960-894X(02)01050-8

Measured Target: UniProt:P42227
Sequence (P42227 whole entry): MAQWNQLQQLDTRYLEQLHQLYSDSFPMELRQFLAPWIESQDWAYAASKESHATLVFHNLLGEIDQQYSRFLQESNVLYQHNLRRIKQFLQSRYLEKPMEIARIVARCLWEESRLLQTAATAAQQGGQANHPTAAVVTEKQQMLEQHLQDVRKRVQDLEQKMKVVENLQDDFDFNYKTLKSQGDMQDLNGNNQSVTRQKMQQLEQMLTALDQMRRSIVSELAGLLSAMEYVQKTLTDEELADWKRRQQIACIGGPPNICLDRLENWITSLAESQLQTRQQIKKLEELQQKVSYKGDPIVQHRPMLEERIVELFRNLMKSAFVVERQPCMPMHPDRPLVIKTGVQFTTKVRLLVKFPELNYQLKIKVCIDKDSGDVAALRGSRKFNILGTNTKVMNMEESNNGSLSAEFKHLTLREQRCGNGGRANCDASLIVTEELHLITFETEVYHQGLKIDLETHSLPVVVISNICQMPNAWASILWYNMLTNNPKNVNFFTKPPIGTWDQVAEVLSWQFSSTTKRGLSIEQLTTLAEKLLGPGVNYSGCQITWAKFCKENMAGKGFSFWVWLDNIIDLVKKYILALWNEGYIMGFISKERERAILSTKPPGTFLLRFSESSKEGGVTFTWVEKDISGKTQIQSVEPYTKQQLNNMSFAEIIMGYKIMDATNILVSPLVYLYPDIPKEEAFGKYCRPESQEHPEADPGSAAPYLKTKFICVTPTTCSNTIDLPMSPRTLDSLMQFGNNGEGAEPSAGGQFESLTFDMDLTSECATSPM
Square brackets hold non-standard residues; d marks the D form. Peptide text beside a SMILES is read from it. ξ: configuration not given here. pY = N[C@@H](Cc1ccc(OP(=O)(O)O)cc1)C(=O)O; Thr(3ξ) = CC(O)[C@H](N)C(=O)O
Recorded Metric: pIC50
Friendly reminder that pIC50 comes from taking -log10 of the concentration in mol/L.

So what pIC50 did CC(=O)N[C@@H](Cc1ccc(OP(=O)(O)O)cc1)C(=O)N[C@@H](CC(C)C)C(=O)N1CCC[C@H]1C(=O)N[C@@H](CCC(N)=O)C(=O)N[C@H](C(=O)N[C@@H](C)C(N)=O)C(C)O (some centres not stated) (Ac-[pY]LPQ[Thr(3ξ)]A-NH2) get with UniProt:P42227? 6.40
